# Tested on: Mus musculus
# Test: Inhibition of acute experimental autoimmune encephalomyelitis in SJL/N mice by 1 mg/kg/day p.o./s.c.
# Format: functional
# Conditions Used: route oral
Recorded Metric: inhibition in vivo at 1 mg/kg/day (%)
Respond numerically; units are % and should not be typed.

> print(dat)
                                     smiles  measurement
1  COc1cccc2c1c(O)c(C(=O)N(C)c1cccc(Oc3ccccc3)c1)c(=O)n2C           63

For record COc1cccc(N(C)C(=O)c2c(O)c3c(OC)cccc3n(C)c2=O)c1 the listed inhibition in vivo at 1 mg/kg/day is 90

Just so you know, measured inhibition in vivo at 1 mg/kg/day for CCN(C(=O)c1c(O)c2cc(Cl)ccc2n(C)c1=O)c1ccccc1 came out at 62

// recorded inhibition in vivo at 1 mg/kg/day for CN(C(=O)c1c(O)c2cc(C(F)(F)F)ccc2n(C)c1=O)c1ccccc1 : 100

For Cc1cccc2c1c(O)c(C(=O)N(C)c1ccccc1)c(=O)n2C the compound record lists inhibition in vivo at 1 mg/kg/day as 100

Origin of the recorded values: ChEMBL document CHEMBL1149146
